Numbers sourced from the supplement of paper PMC10515830.

Recorded measurements of difference, one per entry
tested on: Danio rerio larvae (5 dpf); test: difference in combined optomotor response to red, green and blue moving lines vs DMSO (percentage points); higher = stronger optomotor response than DMSO; settings: 10 µM; exposure time 6 h
Could you respond with only the numeric value?

Below: 3 molecules and their reported difference.
MOLECULE	difference
CO[C@H]1C(=O)[C@]2(C)[C@@H](OC)C[C@H]3OC[C@@]3(OC(C)=O)[C@H]2[C@H](OC(=O)c2ccccc2)[C@]2(O)C[C@H](OC(=O)[C@H](O)[C@@H](NC(=O)OC(C)(C)C)c3ccccc3)C(C)=C1C2(C)C [Cabazitaxel]	2.83
C[C@@H](CN1CC(=O)NC(=O)C1)N1CC(=O)NC(=O)C1 [Dexrazoxane]	4.12
CN(C)CCOC(C)(c1ccccc1)c1ccccn1 (stereo not drawn) [Doxylamine (succinate)]	9.42

Prompt: Given the entry CN(C)c1cc(NC(=O)CNC(C)(C)C)c(O)c2c1C[C@H]1C[C@H]3[C@H](N(C)C)C(O)=C(C(N)=O)C(=O)[C@@]3(O)C(O)=C1C2=O [Tigecycline] , report its measured difference.
Response: -3.12

Prompt: Given the entry O=C1CN(/N=C/c2ccc([N+](=O)[O-])o2)C(=O)N1 [Nitrofurantoin] , report its measured difference.
Response: 8.98

Prompt: Given the entry COc1ccc2cc(C(C)C(=O)O)ccc2c1 (single isomer, unassigned; (+)) [(+)-Naproxen] , report its measured difference.
Response: -3.32

---

Recorded measurements of difference, one per entry
system: Danio rerio larvae (5 dpf); experiment: difference in combined optomotor response to red, green and blue moving lines vs DMSO (percentage points); higher = stronger optomotor response than DMSO; conditions: 10 µM; exposure time 6 h
Where a name gives a salt, the structure may show the parent alone.
Could you respond with only the numeric value?

Below: 5 molecules and their reported difference.
> print(dat)
                                   molecule  readout.value
1  CCc1c(C)[nH]c2c1C(=O)C(CN1CCOCC1)CC2 (stereo unspecified) [Molindone (hydrochloride)]          -2.83
2   CCOC(=O)c1ncn2c1CN(C)C(=O)c1cc(F)ccc1-2           3.91
3                         OB1OCc2cc(F)ccc21           4.85
4                    NC(=O)NO [Hydroxyurea]           3.68
5  Cc1[nH]c2ccccc2c1CCNCc1ccc(/C=C/C(=O)NO)cc1           1.65

Let's switch to this molecule now.
Prompt: Give difference (Danio rerio larvae (5 dpf)) of the following molecule: Cc1ccc(NC(=O)c2ccc(CN3CCN(C)CC3)cc2)cc1Nc1nccc(-c2cccnc2)n1 [Imatinib (mesylate)]
Response: -1.23

---

tested on: Danio rerio larvae (5 dpf); assay: difference in excitability vs DMSO (percentage points); higher = more excitable than DMSO; conditions: 10 µM; exposure time 6 h
Structures can show the parent of a compound that is named as a salt.
Recorded measurements of difference in excitability, one per entry
Could you respond with only the numeric value?

Below: 6 molecules and their reported difference in excitability.
> print(dat)
                                   molecule  readout.value
1  Clc1ccc(CO/N=C(\Cn2ccnc2)c2ccc(Cl)cc2Cl)c(Cl)c1 [Oxiconazole (nitrate)]           5.37
2  C[N+]1(C)[C@@H]2C[C@@H](OC(=O)C(O)(c3cccs3)c3cccs3)C[C@H]1[C@@H]1O[C@@H]12 [Tiotropium (bromide)]         -0.664
3  CN(C)CC/C=C1/c2ccccc2COc2ccc(CC(=O)O)cc21 [Olopatadine (hydrochloride)]           2.11
4  Cc1cccc(Nc2ccncc2S(=O)(=O)NC(=O)NC(C)C)c1 [Torasemide]           6.87
5  CC1(C)C[C@@H]1C(=O)N/C(=C\CCCCSC[C@H](N)C(=O)O)C(=O)O          -5.97
6  CN(C/C=C/c1ccccc1)Cc1cccc2ccccc12 [Naftifine (hydrochloride)]           11.1

Prompt: Given the entry Clc1ccc(CSC(Cn2ccnc2)c2ccc(Cl)cc2Cl)cc1 (stereo not drawn) [Sulconazole (nitrate)] , report its measured difference in excitability.
Response: 11.3

Prompt: Given the entry `CCCCCCCCCCCCCCCCCCCCCCO` , report its measured difference in excitability.
Response: 3.23

---

system: Danio rerio larvae (5 dpf); assay: difference in activity during first hour vs DMSO (percentage points); higher = more activity than DMSO; conditions: 10 µM; exposure time 6 h
Counter-ions that a name gives are not always drawn.
Binning scheme for difference in activity during first hour: low bracket = under -3, middle bracket = from -3 up to 7, high bracket = 7 and over

Solved cases (8 shown):
MOLECULE	ASSIGNED CLASS
N=C(N)NCCCC[C@@H]1NC(=O)CCSSC[C@@H](C(N)=O)NC(=O)[C@@H]2CCCN2C(=O)[C@H](Cc2c[nH]c3ccccc23)NC(=O)[C@H](CC(=O)O)NC(=O)CNC1=O [Eptifibatide]	middle bracket
OCCN1CCN(CCCN2c3ccccc3Sc3ccc(C(F)(F)F)cc32)CC1 [Fluphenazine (hydrochloride)]	high bracket
CC(=O)[C@@]1(O)CC[C@H]2[C@@H]3C[C@H](C)C4=CC(=O)C=C[C@]4(C)[C@@]3(F)[C@@H](O)C[C@@]21C	middle bracket
CCS(=O)(=O)CCn1c([N+](=O)[O-])cnc1C	high bracket
C[C@@H](O)[C@H]1C(=O)N2C(C(=O)O)=C(S[C@@H]3CN[C@H](C(=O)N(C)C)C3)[C@H](C)[C@H]12 [Meropenem (hydrate)]	middle bracket
COc1cccc(N2CCN(C3=Nc4c(F)cccc4[C@H](CC(=O)O)N3c3cc(C(F)(F)F)ccc3OC)CC2)c1	high bracket
Nc1cc(Cl)c(N=C2NCCN2)c(Cl)c1 [Apraclonidine (hydrochloride)]	low bracket
C#C[C@]1(O)CC[C@H]2[C@@H]3CCC4=CC(=O)CC[C@@H]4[C@H]3CC[C@@]21CC	low bracket

Prompt: Kindly identify the class of `CC1(C)CCC(CN2CCN(c3ccc(C(=O)NS(=O)(=O)c4ccc(NCC5CCOCC5)c([N+](=O)[O-])c4)c(Oc4cnc5[nH]ccc5c4)c3)CC2)=C(c2ccc(Cl)cc2)C1` .
Response: high bracket

Prompt: Kindly identify the class of `CNCc1ccc(-c2[nH]c3cc(F)cc4c3c2CCNC4=O)cc1` .
Response: low bracket

Prompt: Kindly identify the class of C[C@@H](O)[C@H]1C(=O)N2C(C(=O)O)=C(S[C@@H]3CN[C@H](C(=O)Nc4cccc(C(=O)O)c4)C3)[C@H](C)[C@H]12 [Ertapenem (sodium salt)] .
Response: high bracket

Prompt: Kindly identify the class of COc1ccc(CC2c3cc(OC)c(OC)cc3CC[N+]2(C)CCC(=O)OCCCCCOC(=O)CC[N+]2(C)CCc3cc(OC)c(OC)cc3C2Cc2ccc(OC)c(OC)c2)cc1OC (stereo not drawn) [Atracurium (besylate)] .
Response: low bracket

---

test system: Danio rerio larvae (5 dpf); assay: difference in activity during first hour vs DMSO (percentage points); higher = more activity than DMSO; details: 10 µM; exposure time 6 h
Structures can show the parent of a compound that is named as a salt.
READOUT LABEL: difference in activity during first hour
Could you respond with only the numeric value?

Below: 7 compounds and their reported difference in activity during first hour.
> print(dat)
                                   compound  readout.value
1            C[N+](C)(C)C[C@H](O)CC(=O)[O-]           8.51
2    Clc1ccccc1C(c1ccccc1)(c1ccccc1)n1ccnc1          -19.1
3  CSc1ccc2c(c1)N(CCC1CCCCN1C)c1ccccc1S2 (stereo not drawn) [Thioridazine (hydrochloride)]           12.9
4  NS(=O)(=O)c1cc2c(cc1Cl)NCNS2(=O)=O [Hydrochlorothiazide]           2.42
5  CC(C)(C)NC(=O)[C@@H]1CN(Cc2cccnc2)CCN1C[C@@H](O)C[C@@H](Cc1ccccc1)C(=O)N[C@H]1c2ccccc2C[C@H]1O [Indinavir (sulfate)]           1.38
6  CNS(=O)(=O)Cc1ccc2[nH]cc(CCN(C)C)c2c1 [Sumatriptan (succinate)]          -12.9
7  O=C(O[C@H]1CN2CCC1CC2)N1CCc2ccccc2[C@@H]1c1ccccc1 [Solifenacin (succinate)]           25.6

Let's switch to this compound now.
Prompt: Given the entry `NC(N)=Nc1nc(CSCC/C(N)=N/S(N)(=O)=O)cs1` , report its measured difference in activity during first hour.
Response: -7.05

---

tested on: Danio rerio larvae (5 dpf); experiment: difference in activity during first hour vs DMSO (percentage points); higher = more activity than DMSO; conditions: 10 µM; exposure time 6 h
Where a name gives a salt, the structure may show the parent alone.
Returns rule met if the recorded difference in activity during first hour is greater than or equal to 2, and rule not met otherwise.

Solved cases (5 shown):
COMPOUND	TGT	ASSIGNED CLASS
Cc1c(C(=O)Nc2ccc(N3C[C@@H](C)O[C@@H](C)C3)nc2)cccc1-c1ccc(OC(F)(F)F)cc1 [LDE225 (phosphate)]	Danio rerio larvae (5 dpf)	rule not met
CC(C)OC(=O)CCC/C=C\C[C@@H]1[C@@H](/C=C/[C@@H](O)COc2cccc(C(F)(F)F)c2)[C@H](O)C[C@@H]1O	Danio rerio larvae (5 dpf)	rule met
CO[C@@]1(NC(=O)Cc2cccs2)C(=O)N2C(C(=O)O)=C(COC(N)=O)CS[C@@H]21 [Cefoxitin (sodium salt)]	Danio rerio larvae (5 dpf)	rule met
CCC(=O)O[C@]1(C(=O)CCl)[C@@H](C)C[C@H]2[C@@H]3C[C@H](F)C4=CC(=O)C=C[C@]4(C)[C@@]3(F)[C@@H](O)C[C@@]21C [Halobetasol Propionate]	Danio rerio larvae (5 dpf)	rule met
NCCCC(N)(C(=O)O)C(F)F (racemic) [DL-α-Difluoromethylornithine (hydrochloride hydrate)]	Danio rerio larvae (5 dpf)	rule met

Next item in the queue.
Prompt: Entry CC1(C)O[C@@H]2C[C@H]3[C@@H]4C[C@H](F)C5=CC(=O)CC[C@]5(C)[C@H]4[C@@H](O)C[C@]3(C)[C@]2(C(=O)CO)O1 [Flurandrenolide] : is its difference in activity during first hour no less than 2?
Response: rule not met
